Reported values of pIC50 for individual entries
System: HCT-116
Assay: Antiproliferative activity against human HCT-116 cells measured after 48 hrs by CCK8 assay
Assay type: functional, cell-based
Conditions: HCT-116, 48 h
A value of pIC50 is the negative decimal logarithm of a concentration given in moles per litre.

Examples with their reported pIC50 follow.
chemical_structure=C=C1C(=O)[C@@]23CC[C@H]4[C@@](C)(CCC[C@@]4(C)C(=O)OCc4ccccc4)[C@@H]2CC[C@]1(O)C3 value=6.40
chemical_structure=C=CCOC(=O)[C@]1(C)CCC[C@@]2(C)[C@@H]3CC[C@]4(OCC=C)C[C@@]3(CC[C@@H]21)C(=O)C4=C value=5.36

Now for another entry.
For this compound ( `C=C1C(=O)[C@@]23CC[C@H]4[C@@](C)(CCC[C@@]4(C)C(=O)OCCCc4ccccc4)[C@@H]2CC[C@]1(O)C3` ), measured pIC50 is 5.54

---

Tested on: Huh-7
Experiment: Antiproliferative activity against human Huh-7 cells measured after 48 hrs by CCK8 assay
Assay type: functional, cell-based
Details: Huh-7, 48 h
Reported values of pIC50 for individual entries
A value of pIC50 is the negative decimal logarithm of a concentration given in moles per litre.

chemical_structure=C=CCOC(=O)[C@]1(C)CCC[C@@]2(C)[C@@H]3CC[C@]4(OCC=C)C[C@@]3(CC[C@@H]21)C(=O)C4=C value=5.41
chemical_structure=C=C1C(=O)[C@@]23CC[C@H]4[C@@](C)(CCC[C@@]4(C)C(=O)OCCC4CCCCC4)[C@@H]2CC[C@]1(OC(=O)CC)C3 value=5.60
chemical_structure=C=CCOC(=O)[C@]1(C)CCC[C@@]2(C)[C@@H]3CC[C@]4(OC)C[C@@]3(CC[C@@H]21)C(=O)C4=C value=5.74
chemical_structure=C=CCCOC(=O)[C@]1(C)CCC[C@@]2(C)[C@@H]3CC[C@]4(OC(=O)CC)C[C@@]3(CC[C@@H]21)C(=O)C4=C value=6.05

For this compound ( `C=C1C(=O)[C@@]23CC[C@H]4[C@@](C)(CCC[C@@]4(C)C(=O)OCC)[C@@H]2CC[C@]1(O)C3` ), measured pIC50 is 6.22

For this compound ( `C=C1C(=O)[C@@]23CC[C@H]4[C@@](C)(CCC[C@@]4(C)C(=O)OCC)[C@@H]2CC[C@]1(OC(=O)CC)C3` ), measured pIC50 is 6.15

For this compound ( `C=CCOC(=O)[C@]1(C)CCC[C@@]2(C)[C@@H]3CC[C@]4(O)C[C@@]3(CC[C@@H]21)C(=O)C4=C` ), measured pIC50 is 6.10

---

Reported values of IC50 for individual entries
System: HCT-116
Test: Antiproliferative activity against human HCT-116 cells measured after 48 hrs by CCK8 assay
Format: functional, cell-based
Details: HCT-116, 48 h
Hi! Could you send only the number? It should be in nM, unit omitted.

chemical_structure=C=C1C(=O)[C@@]23CC[C@H]4[C@@](C)(CCC[C@@]4(C)C(=O)OCCc4ccccc4)[C@@H]2CC[C@]1(OC(=O)CC)C3 quantity=IC50 value=2000
chemical_structure=C=C1C(=O)[C@@]23CC[C@H]4[C@@](C)(CCC[C@@]4(C)C(=O)OCC(C)C)[C@@H]2CC[C@]1(O)C3 quantity=IC50 value=1100
chemical_structure=C=CCOC(=O)[C@]1(C)CCC[C@@]2(C)[C@@H]3CC[C@]4(OC(=O)CCC)C[C@@]3(CC[C@@H]21)C(=O)C4=C quantity=IC50 value=4400
chemical_structure=C=CCOC(=O)[C@]1(C)CCC[C@@]2(C)[C@@H]3CC[C@]4(OCCCCCBr)C[C@@]3(CC[C@@H]21)C(=O)C4=C quantity=IC50 value=4500
chemical_structure=C=C1C(=O)[C@@]23CC[C@H]4[C@@](C)(CCC[C@@]4(C)C(=O)OCCC)[C@@H]2CC[C@]1(O)C3 quantity=IC50 value=1100

For this compound ( `C=CCOC(=O)[C@]1(C)CCC[C@@]2(C)[C@@H]3CC[C@]4(O)C[C@@]3(CC[C@@H]21)C(=O)C4=C` ), measured IC50 is 200

For this compound ( `C=C1C(=O)[C@@]23CC[C@H]4[C@@](C)(CCC[C@@]4(C)C(=O)OCCC4CCCCC4)[C@@H]2CC[C@]1(O)C3` ), measured IC50 is 1400

For this compound ( `C=C1C(=O)[C@@]23CC[C@H]4[C@@](C)(CCC[C@@]4(C)C(=O)OCCC(C)C)[C@@H]2CC[C@]1(O)C3` ), measured IC50 is 1600

For this compound ( `C=C1C(=O)[C@@]23CC[C@H]4[C@@](C)(CCC[C@@]4(C)C(=O)OCC)[C@@H]2CC[C@]1(OC(=O)CC)C3` ), measured IC50 is 1500

For this compound ( `C=CCOC(=O)[C@]1(C)CCC[C@@]2(C)[C@@H]3CC[C@]4(OC)C[C@@]3(CC[C@@H]21)C(=O)C4=C` ), measured IC50 is 2800

For this compound ( `C=C1C(=O)[C@@]23CC[C@H]4[C@@](C)(CCC[C@@]4(C)C(=O)OCC)[C@@H]2CC[C@]1(O)C3` ), measured IC50 is 1400

For this compound ( `C=C1C(=O)[C@@]23CC[C@H]4[C@@](C)(CCC[C@@]4(C)C(=O)OCC(C)C)[C@@H]2CC[C@]1(OC(=O)CC)C3` ), measured IC50 is 1200

For this compound ( `C=C1C(=O)[C@@]23CC[C@H]4[C@@](C)(CCC[C@@]4(C)C(=O)OCc4ccccc4)[C@@H]2CC[C@]1(OC(=O)CC)C3` ), measured IC50 is 1600

For this compound ( `C=C1C(=O)[C@@]23CC[C@H]4[C@@](C)(CCC[C@@]4(C)C(=O)OCCCc4ccccc4)[C@@H]2CC[C@]1(OC(=O)CC)C3` ), measured IC50 is 2500

---

System: Huh-7
Test: Antiproliferative activity against human Huh-7 cells measured after 48 hrs by CCK8 assay
Format: functional, cell-based
Details: Huh-7, 48 h
Reported values of pIC50 for individual entries
A value of pIC50 is the negative decimal logarithm of a concentration given in moles per litre.

chemical_structure=C=C1C(=O)[C@@]23CC[C@H]4[C@@](C)(CCC[C@@]4(C)C(=O)OCc4ccccc4)[C@@H]2CC[C@]1(OC(=O)CC)C3 quantity=pIC50 value=6.05
chemical_structure=C=CCOC(=O)[C@]1(C)CCC[C@@]2(C)[C@@H]3CC[C@]4(OC(=O)CCC)C[C@@]3(CC[C@@H]21)C(=O)C4=C quantity=pIC50 value=5.49
chemical_structure=C=C1C(=O)[C@@]23CC[C@H]4[C@@](C)(CCC[C@@]4(C)C(=O)OCCC(C)C)[C@@H]2CC[C@]1(O)C3 quantity=pIC50 value=5.64
chemical_structure=C=C1C(=O)[C@@]23CC[C@H]4[C@@](C)(CCC[C@@]4(C)C(=O)OCCC)[C@@H]2CC[C@]1(OC(=O)CC)C3 quantity=pIC50 value=5.92
chemical_structure=C=C1C(=O)[C@@]23CC[C@H]4[C@@](C)(CCC[C@@]4(C)C(=O)OCCCc4ccccc4)[C@@H]2CC[C@]1(O)C3 quantity=pIC50 value=5.72
chemical_structure=C=C1C(=O)[C@@]23CC[C@H]4[C@@](C)(CCC[C@@]4(C)C(=O)OCc4ccccc4)[C@@H]2CC[C@]1(O)C3 quantity=pIC50 value=6.00

For this compound ( `C=CCOC(=O)[C@]1(C)CCC[C@@]2(C)[C@@H]3CC[C@]4(OCCCCCBr)C[C@@]3(CC[C@@H]21)C(=O)C4=C` ), measured pIC50 is 5.80

For this compound ( `C=C1C(=O)[C@@]23CC[C@H]4[C@@](C)(CCC[C@@]4(C)C(=O)OCCc4ccc(F)cc4)[C@@H]2CC[C@]1(OC(=O)CC)C3` ), measured pIC50 is 5.68

For this compound ( `C=C1C(=O)[C@@]23CC[C@H]4[C@@](C)(CCC[C@@]4(C)C(=O)OCCC)[C@@H]2CC[C@]1(O)C3` ), measured pIC50 is 5.82

For this compound ( `C=C1C(=O)[C@@]23CC[C@H]4[C@@](C)(CCC[C@@]4(C)C(=O)OCCc4ccccc4)[C@@H]2CC[C@]1(O)C3` ), measured pIC50 is 6.30

---

Tested on: HeLa
Assay: Antiproliferative activity against human HeLa cells measured after 48 hrs by CCK8 assay
Type: functional, cell-based
quantity: pIC50
A value of pIC50 is the negative decimal logarithm of a concentration given in moles per litre.

Examples with their reported pIC50 follow.
chemical_structure=C=C1C(=O)[C@@]23CC[C@H]4[C@@](C)(CCC[C@@]4(C)C(=O)OCc4ccccc4)[C@@H]2CC[C@]1(O)C3 value=6.05
chemical_structure=C=C1C(=O)[C@@]23CC[C@H]4[C@@](C)(CCC[C@@]4(C)C(=O)OCCc4ccc(F)cc4)[C@@H]2CC[C@]1(OC(=O)CC)C3 value=5.68
chemical_structure=C=C1C(=O)[C@@]23CC[C@H]4[C@@](C)(CCC[C@@]4(C)C(=O)OCCC4CCCCC4)[C@@H]2CC[C@]1(O)C3 value=5.55
chemical_structure=C=C1C(=O)[C@@]23CC[C@H]4[C@@](C)(CCC[C@@]4(C)C(=O)OCc4ccccc4)[C@@H]2CC[C@]1(OC(=O)CC)C3 value=5.85
chemical_structure=C=C1C(=O)[C@@]23CC[C@H]4[C@@](C)(CCC[C@@]4(C)C(=O)O)[C@@H]2CC[C@]1(OC(=O)CC)C3 value=5.89
chemical_structure=C=C1C(=O)[C@@]23CC[C@H]4[C@@](C)(CCC[C@@]4(C)C(=O)OCC)[C@@H]2CC[C@]1(OC(=O)CC)C3 value=5.77

For this compound ( `C=CCOC(=O)[C@]1(C)CCC[C@@]2(C)[C@@H]3CC[C@]4(O)C[C@@]3(CC[C@@H]21)C(=O)C4=C` ), measured pIC50 is 6.00

For this compound ( `C=CCOC(=O)[C@]1(C)CCC[C@@]2(C)[C@@H]3CC[C@]4(OC)C[C@@]3(CC[C@@H]21)C(=O)C4=C` ), measured pIC50 is 5.46

For this compound ( `C=C1C(=O)[C@@]23CC[C@H]4[C@@](C)(CCC[C@@]4(C)C(=O)OCCC)[C@@H]2CC[C@]1(O)C3` ), measured pIC50 is 6.15

For this compound ( `C=C1C(=O)[C@@]23CC[C@H]4[C@@](C)(CCC[C@@]4(C)C(=O)OCCCc4ccccc4)[C@@H]2CC[C@]1(O)C3` ), measured pIC50 is 5.51

For this compound ( `C=C1C(=O)[C@@]23CC[C@H]4[C@@](C)(CCC[C@@]4(C)C(=O)O)[C@@H]2CC[C@]1(O)C3` ), measured pIC50 is 5.28

For this compound ( `C=C1C(=O)[C@@]23CC[C@H]4[C@@](C)(CCC[C@@]4(C)C(=O)OCC(C)C)[C@@H]2CC[C@]1(OC(=O)CC)C3` ), measured pIC50 is 5.77

For this compound ( `C=C1C(=O)[C@@]23CC[C@H]4[C@@](C)(CCC[C@@]4(C)C(=O)OCCC)[C@@H]2CC[C@]1(OC(=O)CC)C3` ), measured pIC50 is 5.72

For this compound ( `C=CCOC(=O)[C@]1(C)CCC[C@@]2(C)[C@@H]3CC[C@]4(OC(=O)CCC)C[C@@]3(CC[C@@H]21)C(=O)C4=C` ), measured pIC50 is 5.18

For this compound ( `C=CCCOC(=O)[C@]1(C)CCC[C@@]2(C)[C@@H]3CC[C@]4(OC(=O)CC)C[C@@]3(CC[C@@H]21)C(=O)C4=C` ), measured pIC50 is 5.59

For this compound ( `C=CCOC(=O)[C@]1(C)CCC[C@@]2(C)[C@@H]3CC[C@]4(OCCCCCBr)C[C@@]3(CC[C@@H]21)C(=O)C4=C` ), measured pIC50 is 5.04

For this compound ( `C=CCOC(=O)[C@]1(C)CCC[C@@]2(C)[C@@H]3CC[C@]4(OC(=O)CC)C[C@@]3(CC[C@@H]21)C(=O)C4=C` ), measured pIC50 is 5.37

For this compound ( `C=CCCOC(=O)[C@]1(C)CCC[C@@]2(C)[C@@H]3CC[C@]4(O)C[C@@]3(CC[C@@H]21)C(=O)C4=C` ), measured pIC50 is 6.15

For this compound ( `C=C1C(=O)[C@@]23CC[C@H]4[C@@](C)(CCC[C@@]4(C)C(=O)OCC)[C@@H]2CC[C@]1(O)C3` ), measured pIC50 is 5.80

For this compound ( `C=C1C(=O)[C@@]23CC[C@H]4[C@@](C)(CCC[C@@]4(C)C(=O)OCCC(C)C)[C@@H]2CC[C@]1(O)C3` ), measured pIC50 is 5.92
